# Test system: K-562 leukemia
# protocol-text: NCI tumour cell line growth inhibition, 48 h; in the data active means GI50 below about 0.43 µM; inactive means the rest
Choose the fitting class; nothing outside active, inactive is accepted.

Worked examples follow.
molecule | category
COc1cc2c3c(n(CCCNCCCNCCCNCCCN)c(=O)c2cc1OC)-c1cc2c(cc1C3=O)OCO2 | inactive
Cc1cc(O)c(C2=NN(c3ccc(S(N)(=O)=O)cc3)C(c3ccc(N(C)C)cc3)C2)c(C)c1Cl (stereo not given) | inactive
CS(=O)(=O)Nc1cccc(-c2cc(-c3ccccc3Cl)c(C#N)c(N)n2)c1 | active
CCN(CC)c1ccc2c(c1)Oc1nc(N)c(C#N)c(N)c1C2Sc1ccc(OC)cc1 (stereo not given) | inactive
CCCCCCCCCCCCCCCC[N+](C)(CCO)Cc1cnc[nH]1 (stereo not given) | inactive

Identify the outcome logged in this assay for the molecule shown: CCn1cc(-c2ccnc3[nH]ccc23)c(-c2cccc(NC(=O)Nc3ccc(OCc4ccccc4)cc3)c2)n1 inactive

Identify the outcome logged in this assay for the molecule shown: Cc1nc([C@H]2CC[C@H]3[C@@H]4CCC5=CC(=O)CC[C@]5(C)[C@H]4CC[C@]23C)cs1 inactive

Identify the outcome logged in this assay for the molecule shown: O=Cc1ccc(-c2ccc(-c3nc4ccccc4o3)cc2)s1 inactive

Identify the outcome logged in this assay for the molecule shown: CN1C(=O)[C@@H](NC(=O)[C@H](CCC(F)(F)F)[C@H](CCC(F)(F)F)C(N)=O)N=C(c2ccccc2)c2ccccc21 inactive

Identify the outcome logged in this assay for the molecule shown: COC1=CC(=O)C(OC)=C(OC)C1=O inactive

====

# Tested on: T-47D breast
# protocol-text: NCI tumour cell line growth inhibition, 48 h
For each of the compounds below, state its TGI.
Give bare numbers, in µM.

Consider the worked cases shown below.
chemical-smiles | TGI, µM
CCOC(=O)c1sc(N/N=C2\NC(=O)/C(=C/c3ccc([N+](=O)[O-])cc3)S2)nc1C | 45.4
N=C(N)c1ccc(-c2ccc(-c3ccccc3)s2)cc1 | 4.79
CCCCc1ccc(Nc2nc(=S)c3[nH]cnc3[nH]2)cc1 | 49.3
CC(=O)O[C@@H]1[C@@H](O)C2=C3[C@]4(C)[C@@H]1C(C)(C)C(=O)C[C@@H]4[C@]3(O)[C@H](OC(C)=O)[C@@]1(C[C@@H]1C)C2=O | 36

Continue with the next compound.
Recorded TGI of CCCCOC(=O)NC(Nc1cccc(C(F)(F)F)c1)(C(F)(F)F)C(F)(F)F , please. 45.3

====

For each of the compounds below, state its GI50.
# Tested on: SK-MEL-5 melanoma
# protocol-text: NCI tumour cell line growth inhibition, 48 h

I have 2 compounds here; please give me GI50 for each one.
1. CC(=O)[O-].[Mn+3].[O-]c1ccccc1C=NCCN=Cc1ccccc1[O-]
2. O=c1c(O)cccc2cc(O)c(O)c(O)c12

1: 94.8 µM; 2: > 100 µM

====

# Tested on: HCT-116 colon
# protocol-text: NCI tumour cell line growth inhibition, 48 h
readout: TGI (µM)
Give bare numbers, in µM.

Consider the worked cases shown below.
chemical-smiles | system-tested | recorded-value
CN(C)C/C=C/C(=O)Nc1cc2c(Nc3ccc(F)c(Cl)c3F)ncnc2cc1OCCOC(F)F | HCT-116 colon | 2.98
COc1ccc(N/N=C(\CCN(C)C)c2ccccc2)cc1 | HCT-116 colon | 13.8
CN1CCN(c2cc(C(=O)Nc3cc4cc(-c5cnn(C)c5)ccc4cn3)ccn2)CC1 | HCT-116 colon | 11.4
CC(=O)O[C@@H]1[C@@H](O)C2=C3[C@]4(C)[C@@H]1C(C)(C)C(=O)C[C@@H]4[C@]3(O)[C@H](OC(C)=O)[C@@]1(C[C@@H]1C)C2=O | HCT-116 colon | 30.8

I have 3 compounds here; please give me TGI for each one.
1. N#CC(C#N)N=Nc1ccc(Br)cc1
2. CCOC(=O)Cc1csc2[n+]1C(=O)/C(=C\c1cccc(Cl)c1Cl)S2
3. COc1cc(/C=C/c2cc(/C=C/c3ccc(O)c(OC)c3)nc(N)n2)ccc1O

1: 9.44; 2: 25.7; 3: 2.39

====

# System: HL-60(TB) leukemia
# protocol-text: NCI tumour cell line growth inhibition, 48 h
readout: TGI

Consider the worked cases shown below.
molecule | system-tested | TGI
CN1CCCCC(C#N)(c2ccccc2)CC1 (stereo not given) | HL-60(TB) leukemia | > 100 µM
O=C(O)c1cc2ccccc2c(N=Nc2cc(C(F)(F)F)ccc2Cl)c1O | HL-60(TB) leukemia | > 100 µM
CC=CCOc1cc(NC(=S)OC(C)C)ccc1Cl (mixture of isomers) | HL-60(TB) leukemia | 55.7 µM
Cc1cc(O)c(C2=NN(c3ccc(S(N)(=O)=O)cc3)C(c3ccc(N(C)C)cc3)C2)c(C)c1Cl (stereo not given) | HL-60(TB) leukemia | 50 µM
CN(CCO)c1nc(N)cc(=O)[nH]1 | HL-60(TB) leukemia | > 100 µM

I have 7 molecules here; please give me TGI for each one.
1. Cc1nc2c(nc1C)-c1c(c3c(n1C)C(=O)CCC3)C(=O)C2=O
2. O=C(O)c1cc2ccccc2oc1=O
3. CCN1C[C@]2(C)CC[C@H](OC)C34C1C([C@H](OC(C)=O)[C@@H]32)[C@@]1(OC)C[C@H](OC)[C@H]2C[C@@H]4[C@@H]1[C@H]2O
4. Cc1nc(CN2CCCCC2)c(O)c(=O)[nH]1
5. CCOC(=O)C(=O)Nc1ccc(Cl)cc1C
6. CCn1cc(-c2ccnc3[nH]ccc23)c(-c2cccc(NC(=O)Nc3ccc(OCc4ccccc4)cc3)c2)n1
7. S=P1(N2CCCCC2)Oc2ccc3ccccc3c2-c2c(ccc3ccccc23)O1

0.508 µM
> 100 µM
> 100 µM
> 100 µM
> 100 µM
17.2 µM
> 100 µM

====

# Tested on: A498 renal
# protocol-text: NCI tumour cell line growth inhibition, 48 h
readout: TGI (µM)
Give bare numbers, in µM.

Consider the worked cases shown below.
molecule | units-symbol | TGI
O=C(O)CCC/C=C\C[C@H]1C=CC(=O)/C1=C/C[C@@H](O)CCc1cccc(C(F)(F)F)c1 | µM | 4.06
COc1cc(C=C2C(C)=NN(c3cccc(Cl)c3)C23C(Cl)C(=O)N3c2nc3ccccc3s2)ccc1O (stereo not given) | µM | 35.2

Continue with the next molecule.
Recorded TGI of Cc1cc(Nc2c3ccccc3nc3ccccc23)ccc1NS(C)(=O)=O , please. 10.6

====

# Tested on: SK-OV-3 ovarian
# protocol-text: NCI tumour cell line growth inhibition, 48 h; in the data active means GI50 below about 0.43 µM; inactive means the rest
Choose the fitting class; nothing outside active, inactive is accepted.

Worked examples follow.
molecule | category
COc1cc(/C=C/c2cc(/C=C/c3ccc(O)c(OC)c3)nc(N)n2)ccc1O | inactive
COC1=CC(=O)C(OC)=C(OC)C1=O | inactive
Cc1cc(O)c(C2=NN(c3ccc(S(N)(=O)=O)cc3)C(c3ccc(N(C)C)cc3)C2)c(C)c1Cl (configuration not stated) | inactive
O=C(Nc1ccccc1O)c1ccc(CNc2ccnc(C(F)(F)F)c2)cc1 | inactive

Identify the outcome logged in this assay for the molecule shown: OC(COc1ccc(F)cc1)Cn1cnc2c(Cl)ncnc21 (configuration not stated) inactive

Identify the outcome logged in this assay for the molecule shown: C[C@@H]1Cc2c([nH]c3ccccc23)[C@@H](c2c(F)cc(NC3CN(CCCF)C3)cc2F)N1CC(F)(F)CO inactive

Identify the outcome logged in this assay for the molecule shown: COC(=O)c1c(O)c([N+](=O)[O-])cc2c1c1c(n2Cc2ccccc2)C(=O)c2ccccc2C1=O inactive

Identify the outcome logged in this assay for the molecule shown: CCN(CC)c1ccc2c(c1)Oc1nc(N)c(C#N)c(N)c1C2Sc1ccc(OC)cc1 (configuration not stated) inactive

====

For each of the molecules below, state its TGI.
# Test system: NCI-H522 lung
# protocol-text: NCI tumour cell line growth inhibition, 48 h
One number for each entry, in µM.

Consider the worked cases shown below.
molecule | TGI (µM)
C[C@@H](CN1CC(=O)NC(=O)C1)N1CC(=O)NC(=O)C1 | 518
COC(=O)c1c(O)c([N+](=O)[O-])cc2c1c1c(n2Cc2ccccc2)C(=O)c2ccccc2C1=O | 65.6

I have 6 molecules here; please give me TGI for each one.
1. CCN(CC)c1ccc2c(c1)Oc1nc(N)c(C#N)c(N)c1C2Sc1ccc(OC)cc1 (centres undefined)
2. O=C1C=CC2=[N+]([O-])C(c3ccccc3)(c3ccccc3)C(=Nc3ccccc3)C2=C1
3. CC(=O)Oc1cc2c(c3ncccc13)OC(C)(C)C2
4. CC(C)CC(=O)Nc1n[nH]c2c1CN(C(=O)C1CCN(C)CC1)C2(C)C
5. CCN(CC)CCCC(C)Nc1nc(C)cc(Nc2ccc3nc(C)cc(N)c3c2)n1 (centres undefined)
6. CN(C)C/C=C/C(=O)Nc1cc2c(Nc3ccc(F)c(Cl)c3F)ncnc2cc1OCCOC(F)F

1. 3.38
2. 3.02
3. 8.26
4. 3.99
5. 91.9
6. 1.35

Recorded TGI of CN1CCN(c2cc(C(=O)Nc3cc4cc(-c5cnn(C)c5)ccc4cn3)ccn2)CC1 , please. 0.327

// data source = PubChem BioAssay (NCI)
